Measured values drawn from PubChem BioAssay for this set.

assay: inhibitors of hydroxyurea-induced Chk1 phosphorylation, primary screen, imaging, HeLa, phospho-Chk1 nuclear intensity (AID 1187); conditions: hydroxyurea-induced phospho-Chk1 immunofluorescence imaging, higher = more signal; also: test concentration not given here
Below: a set of entries, each annotated with reported z-score.

>  <Molecule>
C=C(C)[C@@H]1CC=C(C(O)C2C=CC3C(=O)N(c4ccccc4)C(=O)C3N2Nc2ccccc2F)CC1 (stereo partly drawn)

>  <z-score>
0.372

$$$$
>  <Molecule>
CC(=O)c1ccc(C(O)C2C=CC3C(=O)N(c4ccccc4)C(=O)C3N2Nc2ccc(C#N)cc2)cc1 (stereo not drawn)

>  <z-score>
-0.211

$$$$
>  <Molecule>
COCCOC(=O)N1C(=O)[C@@]2(c3cc(C#Cc4ccc(OC)cc4)ccc31)[C@H](c1ccc(O)cc1)N1[C@H](c3ccccc3)[C@H](c3ccccc3)OC(=O)[C@H]1[C@@H]2C(=O)N1CCCCCCC1

>  <z-score>
-0.171

$$$$
>  <Molecule>
CO[C@H]1O[C@H](CO)[C@@H](OC(=O)Nc2ccccc2-c2ccccc2)[C@H](OC(=O)Nc2ccc3c(c2)OCO3)[C@H]1OC(=O)Nc1ccc2c(c1)OCO2

>  <z-score>
-0.272

$$$$
>  <Molecule>
C=CCOC(=O)[C@H]1[C@@H]2C(=O)O[C@@H](c3ccccc3)[C@@H](c3ccccc3)N2[C@@H](c2ccc(OCCOC(=O)[C@H]3C[C@H]4C(=O)N[C@@H](CCCCNC(C)=O)C(=O)N4[C@H]3c3ccc(O)cc3)cc2)[C@]12C(=O)Nc1ccccc12

>  <z-score>
0.261

$$$$
>  <Molecule>
COC(=O)CCCCCCC(=O)Nc1ccc(NC(=O)CCCC[P+](c2ccccc2)(c2ccccc2)c2ccccc2)cc1

>  <z-score>
-1.21

$$$$
>  <Molecule>
O=C(NCC(F)(F)F)[C@@H]1c2ccccc2C(=O)N(Cc2ccccc2C(F)(F)F)[C@H]1c1ccc(CO)cc1

>  <z-score>
-0.0409

$$$$
>  <Molecule>
O=C1O[C@@H](c2ccccc2)[C@@H](c2ccccc2)N2[C@@H](c3ccccc3OCCO)[C@]3(C(=O)Nc4ccc(C#CCCO)cc43)[C@@H](C(=O)N3CCCCCCC3)[C@H]12

>  <z-score>
-0.462

$$$$
>  <Molecule>
COCCCNC(=O)[C@@]1(Cc2ccccc2N=[N+]=[N-])COC(c2ccc(OCCCO)cc2)=N1

>  <z-score>
-0.101

$$$$
>  <Molecule>
C=CC[C@]1(C(=O)NCCN2CCOCC2)N=C(c2ccc(OCCCO)cc2)O[C@H]1c1ccccc1CN=[N+]=[N-]

>  <z-score>
0.23

$$$$
>  <Molecule>
[N-]=[N+]=Nc1ccccc1C[C@]1(C(=O)N2CCOCC2)N=C(c2ccc(OCCCO)cc2)O[C@H]1c1ccccc1

>  <z-score>
-0.106

$$$$
>  <Molecule>
CCOC(=O)C[C@H]1[C@H](OC(=O)c2ccccc2-c2ccccc2)[C@@H](NC(=O)C2CCCCC2)c2cc(OCCCO)ccc2N1C(=O)Cc1ccc(OC)cc1

>  <z-score>
0.223

$$$$
>  <Molecule>
CN(C)C(=O)[C@@]1(CCS(=O)(=O)c2ccccc2)N=C(c2ccc(OCCCO)cc2)O[C@H]1c1ccccc1

>  <z-score>
-0.0208

$$$$

---

test system: glycogen synthase kinase-3 (GSK3A per assay name; protocol says GSK3B); assay: GSK3 binders on small-molecule microarrays, primary screen, biochemical, small-molecule microarray, 635 nm fluorescence, GSK3A (AID 1103); settings: small-molecule microarray binding, fluorescence 635 nm; higher = more signal; also: the record names both GSK3A and GSK3B

>  <Smiles Notation>
COCCCNC(=O)[C@]1(CCS(=O)(=O)c2ccccc2)N=C(c2ccc(OCCCO)cc2)O[C@@H]1c1ccccc1N=[N+]=[N-]

>  <Tested System>
glycogen synthase kinase-3 (GSK3A per assay name; protocol says GSK3B)

>  <composite z-score>
1.29

$$$$
>  <Smiles Notation>
COC(=O)[C@@]1(Cc2ccc(F)cc2)[C@H]2c3cc(C(=O)N4CCCC4)n(CCc4ccc(O)c(O)c4)c3C[C@H]2CN1C(=O)c1ccccc1

>  <Tested System>
glycogen synthase kinase-3 (GSK3A per assay name; protocol says GSK3B)

>  <composite z-score>
-1.73

$$$$
>  <Smiles Notation>
C[C@@H]1ON(c2ccc(C(=O)OC(C)(C)C)cc2)[C@H](c2ccc(O)cc2)[C@H]1C(=O)N1C(=O)OC[C@H]1Cc1ccccc1

>  <Tested System>
glycogen synthase kinase-3 (GSK3A per assay name; protocol says GSK3B)

>  <composite z-score>
1.06

$$$$
>  <Smiles Notation>
COC(=O)c1nc2oc1CC[C@@H](CO)NC(=O)N(C)Cc1cnnn1C[C@H](Cc1ccccc1)NC2=O

>  <Tested System>
glycogen synthase kinase-3 (GSK3A per assay name; protocol says GSK3B)

>  <composite z-score>
-1.05

$$$$
